Target Under Test: T1, interleukin 18 binding protein (IL-18BP) (UniProt O95998 31-194)
T1 sequence (looked up): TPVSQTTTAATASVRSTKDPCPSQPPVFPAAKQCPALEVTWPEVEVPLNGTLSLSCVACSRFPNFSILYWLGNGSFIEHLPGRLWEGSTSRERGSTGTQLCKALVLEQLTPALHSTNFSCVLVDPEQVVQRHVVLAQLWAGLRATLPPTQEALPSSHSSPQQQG
Test Name: cell-based or functional assay
Returns: string. Value is t if measured Ratio (HEK-blue EC50, + 300 nM BP against - BP) is below 2, and f if it is greater than or equal to it.

Incoming: I'd appreciate it if you could check whether IL-18 variant G3P, E6V, K53A, D54W, S55P, T63S, N91L, R104K (ligand) YFPKLVSKLSVIRNLNDQVLFIDQGNRPLFEDMTDSDMRDNAPRTIFIISMYAWPQPRGMAVSISVKSEKISTLSSENKIISFKEMNPPDLIKDTKSDIIFFQKSVPGHDNKMQFESSSYEGYFLASEKERDLFKLILKKEDELGDRSIMFTVQNED has Ratio (HEK-blue EC50, + 300 nM BP against - BP) smaller than 2.
Outgoing: t

Incoming: Follow-up item: IL-18 variant G3P, E6H, N91L (ligand) YFPKLHSKLSVIRNLNDQVLFIDQGNRPLFEDMTDSDMRDNAPRTIFIISMYKDSQPRGMAVTISVKSEKISTLSSENKIISFKEMNPPDLIKDTKSDIIFFQRSVPGHDNKMQFESSSYEGYFLASEKERDLFKLILKKEDELGDRSIMFTVQNED
Outgoing: t
